# target-or-test-system: HLA-A*0101 (human)
# experiment-notes: iTopia net score
Please provide measured iScore for the entries that follow.
Returns: the value as a bare number; no unit string appended.

Task item: What value of iScore has been recorded for this entry: SSPTTPPEY [cdr2 414-422 SSPTTPPEY]
Reply: 0.05

Task item: What value of iScore has been recorded for this entry: LLEEMFLTV [cdr2 290-298 LLEEMFLTV]
Reply: 0.063

Task item: What value of iScore has been recorded for this entry: SFACLKELY [cdr2 157-165 SFACLKELY]
Reply: 0.137

Task item: What value of iScore has been recorded for this entry: EIDEQRTKY [cdr2 439-447 EIDEQRTKY]
Reply: 0.107

Task item: What value of iScore has been recorded for this entry: DTQYSALKV [cdr2 350-358 DTQYSALKV]
Reply: 0.04
